Target: G9a (Homo sapiens)
Sequence (Q96KQ7 whole entry): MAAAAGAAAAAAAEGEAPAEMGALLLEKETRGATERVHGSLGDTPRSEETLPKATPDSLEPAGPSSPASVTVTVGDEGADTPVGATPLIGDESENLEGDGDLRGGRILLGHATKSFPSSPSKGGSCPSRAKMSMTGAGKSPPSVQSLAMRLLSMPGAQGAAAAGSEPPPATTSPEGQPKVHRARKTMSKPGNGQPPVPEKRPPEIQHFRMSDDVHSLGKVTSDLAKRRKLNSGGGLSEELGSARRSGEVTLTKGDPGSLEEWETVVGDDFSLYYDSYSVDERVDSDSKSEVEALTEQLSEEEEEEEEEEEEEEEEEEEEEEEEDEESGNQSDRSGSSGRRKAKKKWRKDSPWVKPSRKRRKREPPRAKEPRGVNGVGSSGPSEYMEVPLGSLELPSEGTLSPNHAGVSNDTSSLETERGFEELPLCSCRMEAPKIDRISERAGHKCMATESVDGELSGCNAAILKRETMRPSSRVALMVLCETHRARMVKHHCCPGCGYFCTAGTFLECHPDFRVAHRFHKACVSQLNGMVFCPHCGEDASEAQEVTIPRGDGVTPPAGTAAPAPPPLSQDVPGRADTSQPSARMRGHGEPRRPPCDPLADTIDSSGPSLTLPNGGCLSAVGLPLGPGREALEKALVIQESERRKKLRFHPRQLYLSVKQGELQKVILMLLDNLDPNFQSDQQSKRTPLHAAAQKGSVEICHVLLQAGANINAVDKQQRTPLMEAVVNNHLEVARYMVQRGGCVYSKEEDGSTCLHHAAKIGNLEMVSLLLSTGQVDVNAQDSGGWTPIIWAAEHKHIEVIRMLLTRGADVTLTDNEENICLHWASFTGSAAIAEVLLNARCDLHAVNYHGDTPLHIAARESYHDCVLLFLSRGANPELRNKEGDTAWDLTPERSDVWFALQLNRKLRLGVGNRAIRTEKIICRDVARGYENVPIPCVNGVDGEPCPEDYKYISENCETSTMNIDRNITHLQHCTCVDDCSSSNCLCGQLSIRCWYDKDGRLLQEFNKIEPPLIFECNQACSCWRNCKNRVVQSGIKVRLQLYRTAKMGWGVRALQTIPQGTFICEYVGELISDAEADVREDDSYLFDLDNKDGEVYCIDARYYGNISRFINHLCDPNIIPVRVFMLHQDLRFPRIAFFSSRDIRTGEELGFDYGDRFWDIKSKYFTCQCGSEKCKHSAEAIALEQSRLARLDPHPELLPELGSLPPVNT
Experiment: G9a AlphaLISA enzymatic activity assay
Format: biochemical
Settings: 0.15 nM G9a, 15 uM S-adenosyl-methionine, 100 nM biotinylated histone 3 peptide (1-21), 1 hour at room temperature; read-out: G9a in (uM) (IC50, concentration that produced 50% inhibition)
Counter-ions that a name gives are not always drawn.
Consider the following partition of reported IC50 into named classes: low: < 0.03 µM; middle: ≥ 0.03 µM and < 0.4 µM; high: ≥ 0.4 µM

1. COc1cc2c3c(cnc2cc1OCCCN1CCCC1)CCC(C)(C)N3 [Example 75, formate] = low
2. COc1cc2c3c(c(NCC(F)(F)F)nc2cc1OCCCN1CCCC1)CCC3 [Example 65, formate] = high
3. COc1cc2c3c(c(N(C)C4CCCC4)nc2cc1OCCCN1CCCC1)CCC3 [Example 73, trifluoroacetate] = high
4. COc1cc2c3c(c(N[C@H]4CC[C@H](O)CC4)nc2cc1OCCCN1CCCC1)CCC3 = middle
5. COc1cc2c(cc1OCCCN1CCCC1)nc(O)n1nccc21 = high
6. CNc1nc2cc(OCCCN3CCCC3)c(OC)cc2c2c1COCC2 [Example 57, formate] = middle
7. CNc1nc2cc(OCCCN3CCCC3)c(OC)cc2c2c1CCN2 [Example 22, trifluoroacetate] = low
8. COc1cc2c3c(c(NC(C)C)nc2cc1OCCCN1CCOCC1)CCC3 [Example 112, trifluoroacetate] = high
9. CC[C@@H](C)Nc1nc2cc(OCCCN3CCCC3)c(OC)cc2c2c1CCC2 [Example 100, formate] = middle
10. COc1cc2c3c(c(N4CCCC4)nc2cc1OCCCN1CCCC1)CCC3 [Example 10, formate] = middle
11. COc1cc2c3c(c(NC4CCN(C)CC4)nc2cc1OCCCN1CCCC1)CCC3 [Example 41, formate] = high
12. COc1cc2c3c(c(NC4CCN(C(C)C)CC4)nc2cc1OCCCN1CCCC1)CCC3 [Example 43, formate] = high
13. CNc1nc2cc(OCCCN3CCCC3)c(OC)cc2c2c1CC(C)(C)N2 [Example 24, trifluoroacetate] = low
14. CCCNc1nc2cc(OCCCN3CCCC3)c(OC)cc2c2c1CCC2 [Example 104, trifluoroacetate] = low
15. COc1cc2c3c(c(NC(C)C)nc2cc1OCCCN1CCCC1)CCC3 [Example 3, trifluoroacetate] = low
16. COc1cc2c3c(c(NCC(C)C)nc2cc1OCCCN1CCCC1)CCC3 [Example 103, trifluoroacetate] = low
17. COc1cc2c3c(c(NC(C)C)nc2cc1OCCCN1CCCCC1)CCC3 [Example 85, formate] = high
18. COc1ccc(CNc2nc3cc(OCCCN4CCCC4)c(OC)cc3c3c2CC(C)(C)C3)c(OC)c1 [Example 117, formate] = middle
19. CC[C@H](C)Nc1nc2cc(OCCCN3CCCC3)c(OC)cc2c2c1CCC2 [Example 99, formate] = low
20. COc1cc2c3c(c(NC4CCC(O)C4)nc2cc1OCCCN1CCCC1)CCC3 (centres unmarked) = middle
21. COc1cc2c3c(c(NC(C)C)nc2cc1OCCCN1CCCC1)CC(C)(C)C3 [Example 54, formate] = middle
22. COc1cc2c3c(c(NCCO)nc2cc1OCCCN1CCCC1)CCCC3 = middle
23. COc1cc2c3c(c(NC4CCCCC4)nc2cc1OCCCN1CCCC1)CCC3 [Example 107, trifluoroacetate] = low
24. COc1cc2c3c(c(NC(C)C)nc2cc1OCC1CCN(C)C1)CCCC3 (centres unmarked) [Example 51, formate] = high
25. COc1cc2c3c(c(O)nc2cc1OCCCN1CCCC1)CCCC3 [Example 38, trifluoroacetate] = high
26. COc1cc2c3c(c(NCC4CCC4)nc2cc1OCCCN1CCCC1)CC(C)(C)C3 [Example 96, formate] = middle
27. COc1cc2c3c(c(N[C@H]4CCOC4)nc2cc1OCCCN1CCCC1)CCC3 [Example 18, formate] = middle
28. COc1cc2c3c(c(O)nc2cc1OCCCN1CCCC1)CCC3 [Example 37, trifluoroacetate] = high
29. COc1cc2c3c(c(N)nc2cc1OCCCN1CCCC1)CC(C)(C)C3 [Example 118, formate] = low
30. COc1cc2c3c(c(NC4CCOCC4)nc2cc1OCCCN1CCCC1)CCCC3 [Example 12, trifluoroacetate] = high
31. CCCCNc1nc2cc(OCCCN3CCCC3)c(OC)cc2c2c1CC(C)(C)C2 [Example 91, formate] = low
32. COc1cc2c3c(c(NC4CC4)nc2cc1OCCCN1CCCC1)CCC3 [Example 105, trifluoroacetate] = low
